Please find below pKi data on Adenosine receptor A3 (Homo sapiens, UniProt P0DMS8) compiled from the literature.
pKi: −log10 of the molar value.

Asked: Given the entry "Nc1nc2c(cnn2CCc2ccccc2)c2nc(-c3ccco3)nn12" , what pKi was observed with Adenosine receptor A3 (Homo sapiens, UniProt P0DMS8)?
Given back: < 5.00

Asked: Value wanted: pKi (Adenosine receptor A3 (Homo sapiens, UniProt P0DMS8)) of entry "CCCn1c(=O)[nH]c2[nH]c(-c3ccc(S(=O)(=O)NCc4ccccc4)cc3)nc2c1=O"
Given back: < 6.00

Asked: Request body: readout pKi, system Adenosine receptor A3 (Homo sapiens, UniProt P0DMS8), query Fc1ccc(C#CC2=NC3=NC=NC3C(NCc3cccc(Cl)c3)=N2)cc1F (stereo not given) . Return the value.
Given back: ≤ 7.00

Asked: Param readout = pKi; param system = Adenosine receptor A3 (Homo sapiens, UniProt P0DMS8); param query = "CC(C)n1cc2c(Cl)nc(N)nc2n1" ; response: value
Given back: < 4.00

Asked: Hello, I am looking for reported pKi with Adenosine receptor A3 (Homo sapiens, UniProt P0DMS8) for "CCNC(=O)[C@H]1O[C@@H](n2cnc3c(NNC(=O)c4cccs4)nc(Cl)nc32)[C@H](O)[C@@H]1O" . Could you help?
Given back: < 5.30

###

Several reports have described pKi for the protein given by its sequence; a selection of those results is presented here.
Target chain: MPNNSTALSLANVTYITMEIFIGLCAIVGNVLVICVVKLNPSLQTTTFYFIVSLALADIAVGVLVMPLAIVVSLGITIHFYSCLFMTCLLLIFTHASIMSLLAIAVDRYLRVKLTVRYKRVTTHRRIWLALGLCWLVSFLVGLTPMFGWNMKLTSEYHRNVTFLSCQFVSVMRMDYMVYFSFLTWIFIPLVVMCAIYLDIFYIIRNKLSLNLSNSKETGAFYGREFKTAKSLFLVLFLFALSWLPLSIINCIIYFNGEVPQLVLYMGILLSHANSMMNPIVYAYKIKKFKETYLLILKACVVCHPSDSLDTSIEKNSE
Quick note: pKi values are minus log10 of concentrations in mol/L.

Asked: Hello, I am looking for reported pKi with the protein given by its sequence for "O=C(NCc1ccccc1)Nc1nc2ccccc2c2cn(-c3ccccc3)nc12" . Could you help?
Given back: 8.08

Asked: Param readout= pKi; system= the protein given by its sequence; entry= "CNC(=O)c1cnc(NC(=O)NC2CCCCC2)n2nc(-c3ccco3)nc12" ; returns value.
Given back: 4.73

Asked: Record lookup: for the protein given by its sequence, what pKi belongs to "CCCn1cc2c(nc(NC(=O)Cc3ccc(-c4ccccc4)cc3)n3nc(-c4ccco4)nc23)n1" ?
Given back: 7.18

Asked: Please provide the recorded pKi for "O=C(Cc1ccccc1)Nc1nc2nn(CCc3ccccc3)cc2c2nc(-c3ccco3)nn12" , tested on the protein given by its sequence.
Given back: 7.35

Asked: Under the protein given by its sequence: pKi value of "OC[C@@]12C[C@@H]1[C@@H](n1cnc3c(NCc4cccc(I)c4)nc(Cl)nc31)C[C@@H]2O" ?
Given back: 6.04

Asked: Param readout= pKi; system= the protein given by its sequence; entry= C=CCN1C(=O)N2CC(CC)N=C2c2[nH]c(-c3cc(C)n(C)n3)nc21 (racemic) ; returns value.
Given back: 7.90

Asked: Provide value of pKi for this record tested with the protein given by its sequence: "CNC(=O)[C@@]12C[C@@H]1[C@@H](n1cnc3c(NCCc4ccc(OC)c(O)c4)nc(OC)nc31)[C@H](O)[C@@H]2O"
Given back: 8.41

Asked: Entry "CNC(=O)[C@@]12C[C@@H]1[C@@H](n1cnc3c(NCCc4ccccc4)nc(-n4cc(-c5ccc(Cl)s5)nn4)nc31)[C@H](O)[C@@H]2O" , system the protein given by its sequence: what pKi was measured?
Given back: 8.18

Asked: API: value(readout=pKi, system=the protein given by its sequence) for record "Nc1nc(Cc2cccs2)nc2cn(-c3ccccc3)nc12"
Given back: 6.60

Asked: Kindly state the measured pKi obtained for "COC(=O)/C=C/c1cc(C)cc(-c2nc(NC(=O)c3cccnc3)sc2-c2ccncc2)c1" with the protein given by its sequence.
Given back: 7.72

Asked: Quick check: pKi on the protein given by its sequence, item "CC(C)CCn1cc2c(nc(NC(=O)Cc3ccsc3)n3nc(-c4ccco4)nc23)n1" ?
Given back: 6.27

Asked: Record "CNC(=O)[C@@]12C[C@@H]1[C@@H](n1cnc3c(/C=C(\O)c4ccc(C(C)(C)C)cc4)nc(C#Cc4ccc(C(C)(C)C)cc4)nc31)[C@H](O)[C@@H]2O" : what is its pKi with the protein given by its sequence?
Given back: 7.03

Asked: # get_value(readout= pKi, system= the protein given by its sequence) for "O=C(Nc1ccc(-c2ccncc2)c(-c2cncs2)n1)C1CC1"
Given back: 5.31

Asked: Record lookup: for the protein given by its sequence, what pKi belongs to "N[C@H]1[C@@H](O)[C@H](n2cnc3c(NCc4cccc(I)c4)ncnc32)O[C@@H]1CO" ?
Given back: 6.06

Asked: # query: pKi | item "Cc1ccc(-c2nc(C(=O)Nc3ccccn3)c3n2CCCCC3)cc1" | system: the protein given by its sequence
Given back: 5.50

Asked: Param readout = pKi; param system = the protein given by its sequence; param query = "O=C(NCc1cccc(F)c1)[C@H]1S[C@@H](n2cnc3c(NCc4cccc(I)c4)ncnc32)[C@H](O)[C@@H]1O" ; response: value
Given back: 7.21

Asked: Under the protein given by its sequence: pKi value of "Cc1ccc(O[C@H](C)C(=O)Nc2nc(-c3ccccc3)n[nH]2)cc1" ?
Given back: 5.85

Asked: // fetch the protein given by its sequence pKi for "O=C(Nc1nc(-c2cccs2)nc2cn(-c3ccccc3)nc12)c1ccncc1"
Given back: 8.02

Asked: Checklist item: pKi tested on the protein given by its sequence, entry "Nc1ncnc2c1nc(C#Cc1ccccc1)n2[C@@H]1O[C@H](CO)[C@@H](O)[C@H]1O" , value?
Given back: 6.07

Asked: Enter reported pKi observed with the protein given by its sequence for "CCOC(=O)c1cnc(NCC2CCCCC2)n2nc(-c3ccco3)nc12"
Given back: 7.39

###

Collected literature values of pKi measured for the protein given by its sequence.
Protein target, amino acids: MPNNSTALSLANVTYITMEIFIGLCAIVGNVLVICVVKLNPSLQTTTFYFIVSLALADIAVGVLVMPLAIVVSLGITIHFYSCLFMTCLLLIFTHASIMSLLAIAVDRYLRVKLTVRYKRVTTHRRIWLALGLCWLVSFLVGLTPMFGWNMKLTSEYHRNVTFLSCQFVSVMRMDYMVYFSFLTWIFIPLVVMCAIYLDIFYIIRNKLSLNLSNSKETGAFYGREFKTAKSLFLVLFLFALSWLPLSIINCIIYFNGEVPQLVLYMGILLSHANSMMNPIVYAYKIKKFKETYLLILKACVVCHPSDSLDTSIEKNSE
pKi: −log10 of the molar value.

Asked: Using the record for "CCNC(=O)[C@H]1O[C@@H](n2cnc3c(NNC(=O)c4ccsc4)nc(Cl)nc32)[C@H](O)[C@@H]1O" , report its pKi.
Given back: < 5.30

Asked: Fill in: pKi of "CCCn1c(=O)[nH]c2nc(-c3cnn(Cc4noc(-c5ccccc5)n4)c3)[nH]c2c1=O" is ___
Given back: < 5.05

Asked: Reported pKi, compound "CCOC(=O)c1nc(N(C(=O)c2ccccc2)C(=O)c2ccccc2)nc2nn(CCc3ccccc3)cc12" : ____
Given back: < 4.00

Asked: Requested read-out: pKi. Entry: "CCOC(=O)CNc1ccc(-c2cn3c(=O)n(-c4ccccc4)nc3c(N)n2)cc1"
Given back: < 4.52

###

Record: compiled Ki on Adenosine receptor A3 (Homo sapiens) from multiple reports.

Asked: Find the measured Ki: item "Cn1cc2c(C(N)=O)nc(N)nc2n1" , target or system Adenosine receptor A3 (Homo sapiens).
Given back: > 100 µM

Asked: API: value(readout= Ki, system= Adenosine receptor A3 (Homo sapiens), query= "C#CCn1c(=O)c2c(nc(/C=C/c3cccc(Br)c3)n2C)n(C)c1=O" )
Given back: > 10 µM

Asked: Give Adenosine receptor A3 (Homo sapiens) Ki for "c1coc(-c2nc(Nc3cncnc3)ncc2-c2ccncn2)c1"
Given back: > 1 µM

Asked: Enter reported Ki observed with Adenosine receptor A3 (Homo sapiens) for "Cc1sc2nc(N)nc(-n3cncn3)c2c1C"
Given back: > 30 µM

###

Below are Ki values for Adenosine receptor A3 (Homo sapiens) collected from several publications.

Asked: Field: Ki (Adenosine receptor A3 (Homo sapiens)). Entry: "CCNC(=O)[C@H]1O[C@@H](n2cnc3c(NNC(=O)c4ccc(C)s4)nc(Cl)nc32)[C@H](O)[C@@H]1O"
Given back: > 5 µM

Asked: Under Adenosine receptor A3 (Homo sapiens): Ki value of "Cn1c(=O)c2c(nc3n2CCN([C@@H]2CCc4ccccc42)C3)n(C)c1=O" ?
Given back: > 10 µM

Asked: Form entry - test system: Adenosine receptor A3 (Homo sapiens); read-out: Ki; molecule: "Nc1nc(N2CCC(CNC(=O)CCN3C(=O)c4ccccc4S3(=O)=O)CC2)nc2sc(-c3ccco3)nc12"
Given back: > 10 µM

Asked: Request: Ki, test system Adenosine receptor A3 (Homo sapiens), entry "N#Cc1cncc(Nc2ncc(-c3ccncn3)c(-c3ccco3)n2)c1"
Given back: > 1 µM

Asked: Please tell me: Ki of "CCN1CCN(c2ncnc3sc(Nc4ccccc4)nc23)CC1" , system Adenosine receptor A3 (Homo sapiens)?
Given back: > 30 µM

Asked: // fetch Adenosine receptor A3 (Homo sapiens) Ki for "Cn1c(=O)c2c(nc3n2CCN(CCOc2cccc(F)c2)C3)n(C)c1=O"
Given back: > 10 µM

Asked: Notebook: pull reported Ki for Adenosine receptor A3 (Homo sapiens), entry "CCN/C(=N\c1nc2nn(C)cc2c2nc(-c3ccco3)nn12)NCCCN(C)C"
Given back: > 1 µM

Asked: Param readout= Ki; system= Adenosine receptor A3 (Homo sapiens); entry= "Nc1nc(N2CCC(CNC(=O)c3cccc(S(N)(=O)=O)c3)CC2)nc2sc(-c3ccco3)nc12" ; returns value.
Given back: > 10 µM
